# experimental-system: WT pol β (Homo sapiens)
# Construct: made in house
# procedure-details: Single turnover polymerase activity (rapid-quench), WT pol β
# Assay type: biochemical
# measurement-parameters: APC sequence, templating base C
# maps each entry to its kpol
Form entry: value (s⁻¹) — number only.

Requested field: kpol. Item: Nc1nc2c(ncn2[C@H]2C[C@H](O)[C@@H](COP(=O)(O)OP(=O)(O)CP(=O)(O)O)O2)c(=O)[nH]1
9.00

// moving on: another record for kpol
So what's the measured kpol for this one? Nc1nc2c(ncn2C2CC(O)C(COP(=O)(O)OP(=O)(O)C(F)P(=O)(O)O)O2)c(=O)[nH]1 (mixture of isomers)
36.4

* * *

# experimental-system: WT pol β (Homo sapiens, UniProt P06746)
# Construct: made in house
# procedure-details: Single turnover polymerase activity (rapid-quench), WT pol β
# Format: biochemical
# measurement-parameters: APC sequence, templating base C
Entries and their Specificity (kpol/KD) values follow.
Give the value in M⁻¹ s⁻¹ but do not write M⁻¹ s⁻¹ after it.

Can you share its Specificity (kpol/KD)? I mean this compound: Nc1nc2c(ncn2[C@H]2C[C@H](O)[C@@H](COP(=O)(O)OP(=O)(O)CP(=O)(O)O)O2)c(=O)[nH]1
1.3e+06

More entries:
Entry Nc1nc2c(ncn2[C@H]2C[C@H](O)[C@@H](COP(=O)(O)OP(=O)(O)OP(=O)(O)O)O2)c(=O)[nH]1 : reported Specificity (kpol/KD) = ?
1.54e+07

# get_value(readout='Specificity (kpol/KD)', item= Nc1nc2c(ncn2C2CC(O)C(COP(=O)(O)OP(=O)(O)C(Cl)P(=O)(O)O)O2)c(=O)[nH]1 (mixture of isomers) [CHCl] )
2.6e+06

// query Specificity (kpol/KD) value for entry Nc1nc2c(ncn2C2CC(O)C(COP(=O)(O)OP(=O)(O)C(F)P(=O)(O)O)O2)c(=O)[nH]1 (mixture of isomers)
4.9e+06

* * *

# experimental-system: K289M pol β (Homo sapiens, UniProt P06746, K289M)
# Construct: made in house
# procedure-details: Single turnover polymerase activity (rapid-quench), K289M pol β
# Assay type: biochemical
# measurement-parameters: apparent dNTP dissociation constant; APC sequence, templating base C
Listing: pKd of selected molecules
Worth noting: pKd values are minus log10 of concentrations stated in mol/L.

Look at this molecule and give its reported pKd. Nc1ccn([C@H]2C[C@H](O)[C@@H](COP(=O)(O)OP(=O)(O)OP(=O)(O)O)O2)c(=O)n1
3.57

Field request: pKd | item: Nc1nc2c(ncn2C2CC(O)C(COP(=O)(O)OP(=O)(O)C(Cl)P(=O)(O)O)O2)c(=O)[nH]1 (mixture of isomers) [CHCl]
5.70

What measured pKd goes with Nc1nc2c(ncn2[C@H]2C[C@H](O)[C@@H](COP(=O)(O)OP(=O)(O)CP(=O)(O)O)O2)c(=O)[nH]1 ?
5.77

Entry Nc1nc2c(ncn2C2CC(O)C(COP(=O)(O)OP(=O)(O)C(F)P(=O)(O)O)O2)c(=O)[nH]1 (mixture of isomers) : reported pKd = ?
5.80

Now, please, on to the next molecule.
Looking for the measured pKd of Nc1nc2c(ncn2[C@H]2C[C@H](O)[C@@H](COP(=O)(O)OP(=O)(O)OP(=O)(O)O)O2)c(=O)[nH]1 , can you help?
5.89

* * *

# experimental-system: WT pol β (Homo sapiens, UniProt P06746)
# Construct: made in house
# procedure-details: Single turnover polymerase activity (rapid-quench), WT pol β
# Assay type: biochemical
# measurement-parameters: APC sequence, templating base C
Entries and their kpol values follow.
Note: state the figure and append the unit.

Consider the following illustrative entries.
# query: kpol of entry Nc1ccn([C@H]2C[C@H](O)[C@@H](COP(=O)(O)OP(=O)(O)OP(=O)(O)O)O2)c(=O)n1
0.22 s⁻¹

Param item = Nc1nc2c(ncn2[C@H]2C[C@H](O)[C@@H](COP(=O)(O)OP(=O)(O)OP(=O)(O)O)O2)c(=O)[nH]1 ; retrieve measured kpol.
35.5 s⁻¹

Kindly review the next molecule as well.
Param item = Nc1nc2c(ncn2C2CC(O)C(COP(=O)(O)OP(=O)(O)C(Cl)P(=O)(O)O)O2)c(=O)[nH]1 (mixture of isomers) [CHCl] ; retrieve measured kpol.
20.3 s⁻¹
